Attribution: the supplement of paper PMC13386468

Biological target: UniProt Q8I0V4
Assay: IC50 for competition of protein binding to Kinobeads;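 note: native unpurified kinases from lysate captured on beads bearing immobilized kinase inhibitors, with bead-bound kinases quantified by mass spectrometry across compound doses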
Conditions: assay detail: Kinobeads competition in P. falciparum blood-stage lysate
measurement_type: IC50

Briefly, IC50 measured for O=c1[nH]c2ccc(Cl)cc2c(NC2CN3CCC2CC3)c1-c1nc2ccccc2[nH]1 (stereo unspecified) : > 20 µM

====

Target: UniProt Q7K6B0
Assay: IC50 for competition of protein binding to Kinobeads
Settings: assay detail: Kinobeads competition in P. falciparum blood-stage lysate
measurement_type: IC50

Lab entry: UniProt Q7K6B0 assay, compound O=c1[nH]c2ccc(Cl)cc2c(NC2CN3CCC2CC3)c1-c1nc2ccccc2[nH]1 (stereo unspecified) , IC50 = > 20 µM

====

Molecular target: UniProt Q8IIJ6
Sequence (Q8IIJ6 whole entry): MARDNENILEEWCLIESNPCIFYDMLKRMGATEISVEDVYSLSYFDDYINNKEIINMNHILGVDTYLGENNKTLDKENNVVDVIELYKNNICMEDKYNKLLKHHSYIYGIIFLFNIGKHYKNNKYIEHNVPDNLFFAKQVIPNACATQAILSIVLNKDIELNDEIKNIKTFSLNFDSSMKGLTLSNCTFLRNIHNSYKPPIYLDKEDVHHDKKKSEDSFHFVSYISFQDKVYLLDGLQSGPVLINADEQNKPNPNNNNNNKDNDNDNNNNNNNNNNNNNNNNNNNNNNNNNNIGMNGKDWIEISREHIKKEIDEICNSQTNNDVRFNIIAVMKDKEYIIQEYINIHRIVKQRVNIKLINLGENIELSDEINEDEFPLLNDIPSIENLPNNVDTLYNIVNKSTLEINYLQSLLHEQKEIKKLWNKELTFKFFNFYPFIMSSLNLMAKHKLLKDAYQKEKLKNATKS
Assay: IC50 for competition of protein binding to Kinobeads
Conditions: assay detail: Kinobeads competition in P. falciparum blood-stage lysate
pIC50: −log10 of the molar value.
measurement_type: pIC50

Briefly, pIC50 measured for O=c1[nH]c2ccc(Cl)cc2c(NC2CN3CCC2CC3)c1-c1nc2ccccc2[nH]1 (stereo unspecified) : < 4.70

====

Biological target: UniProt Q7KQK3
Experiment: IC50 for competition of protein binding to Kinobeads
Conditions: assay detail: Kinobeads competition in P. falciparum blood-stage lysate
pIC50: −log10 of the molar value.
measurement_type: pIC50

Lab entry: UniProt Q7KQK3 assay, compound O=c1[nH]c2ccc(Cl)cc2c(NC2CN3CCC2CC3)c1-c1nc2ccccc2[nH]1 (stereo unspecified) [CHIR-124] , pIC50 = < 4.70

====

Target: UniProt Q8I5S4
Assay: IC50 for competition of protein binding to Kinobeads
Details: assay detail: Kinobeads competition in P. falciparum blood-stage lysate
measurement_type: IC50

Briefly, IC50 measured for O=c1[nH]c2ccc(Cl)cc2c(NC2CN3CCC2CC3)c1-c1nc2ccccc2[nH]1 (stereo unspecified) [CHIR-124] : > 20 µM

====

Molecular target: UniProt C0H4C5
Assay: IC50 for competition of protein binding to Kinobeads
Details: assay detail: Kinobeads competition in P. falciparum blood-stage lysate
pIC50: −log10 of the molar value.
measurement_type: pIC50

Briefly, pIC50 measured for O=c1[nH]c2ccc(Cl)cc2c(NC2CN3CCC2CC3)c1-c1nc2ccccc2[nH]1 (stereo unspecified) : < 4.70

====

Molecular target: UniProt Q9U0N4
Experiment: IC50 for competition of protein binding to Kinobeads
Conditions: assay detail: Kinobeads competition in P. falciparum blood-stage lysate
measurement_type: IC50

Briefly, IC50 measured for O=c1[nH]c2ccc(Cl)cc2c(NC2CN3CCC2CC3)c1-c1nc2ccccc2[nH]1 (stereo unspecified) : > 20 µM

====

Target: UniProt Q9TY95
Sequence (Q9TY95 whole entry): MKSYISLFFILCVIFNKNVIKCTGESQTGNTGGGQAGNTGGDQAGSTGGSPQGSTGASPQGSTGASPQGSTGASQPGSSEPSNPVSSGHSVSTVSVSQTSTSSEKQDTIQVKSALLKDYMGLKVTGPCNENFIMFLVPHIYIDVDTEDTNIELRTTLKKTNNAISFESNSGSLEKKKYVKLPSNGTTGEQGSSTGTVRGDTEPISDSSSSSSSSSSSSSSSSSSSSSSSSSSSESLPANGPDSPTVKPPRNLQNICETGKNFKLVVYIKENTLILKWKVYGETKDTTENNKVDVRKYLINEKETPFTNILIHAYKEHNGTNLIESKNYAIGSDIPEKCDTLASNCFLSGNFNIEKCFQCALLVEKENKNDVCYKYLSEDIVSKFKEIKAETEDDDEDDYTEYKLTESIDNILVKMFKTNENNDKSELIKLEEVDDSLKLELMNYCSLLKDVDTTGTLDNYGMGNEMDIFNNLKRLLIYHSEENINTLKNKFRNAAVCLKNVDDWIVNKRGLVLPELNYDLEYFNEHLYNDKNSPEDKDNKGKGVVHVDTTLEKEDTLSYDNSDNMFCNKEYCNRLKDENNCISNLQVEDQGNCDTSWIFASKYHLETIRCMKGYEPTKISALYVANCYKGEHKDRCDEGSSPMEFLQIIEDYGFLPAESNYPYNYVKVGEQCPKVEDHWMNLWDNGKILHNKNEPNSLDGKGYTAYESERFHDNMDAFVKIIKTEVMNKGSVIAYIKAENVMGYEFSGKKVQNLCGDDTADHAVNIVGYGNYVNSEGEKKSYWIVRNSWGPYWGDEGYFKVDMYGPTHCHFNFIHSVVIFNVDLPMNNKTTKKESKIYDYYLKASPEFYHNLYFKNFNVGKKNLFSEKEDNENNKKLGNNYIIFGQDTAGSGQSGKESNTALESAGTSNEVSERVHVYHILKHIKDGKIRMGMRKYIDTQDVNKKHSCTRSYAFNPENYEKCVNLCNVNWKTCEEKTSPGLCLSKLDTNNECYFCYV
Experiment: IC50 for competition of protein binding to Kinobeads
Conditions: assay detail: Kinobeads competition in P. falciparum blood-stage lysate
measurement_type: IC50

Briefly, IC50 measured for O=c1[nH]c2ccc(Cl)cc2c(NC2CN3CCC2CC3)c1-c1nc2ccccc2[nH]1 (stereo unspecified) : > 20 µM

====

Target: UniProt Q8IKF0
Experiment: IC50 for competition of protein binding to Kinobeads
Conditions: assay detail: Kinobeads competition in P. falciparum blood-stage lysate
measurement_type: IC50

Briefly, IC50 measured for O=c1[nH]c2ccc(Cl)cc2c(NC2CN3CCC2CC3)c1-c1nc2ccccc2[nH]1 (stereo unspecified) : > 20 µM

====

Biological target: UniProt Q8IJA4
Test: IC50 for competition of protein binding to Kinobeads
Conditions: assay detail: Kinobeads competition in P. falciparum blood-stage lysate
measurement_type: IC50

Briefly, IC50 measured for O=c1[nH]c2ccc(Cl)cc2c(NC2CN3CCC2CC3)c1-c1nc2ccccc2[nH]1 (stereo unspecified) : > 20 µM
